# assayed_target: Concanavalin-A (Canavalia ensiformis)
# protocol: ConA small-molecule binders, primary screen, artefact control for SMM control protein annotation, biochemical, small-molecule microarray, Alexa647 label, 635 nm (AID 1127);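 also: z combines 667 nm emission intensity with signal-to-noise across three replicate slides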
# condition_context: ConA-A647 binding fluorescence, higher = more signal
Field: composite z-score. Provide a value for each of the compounds that follow.
Answer with the value's number alone.

q: Quick one: composite z-score of `COC(=O)C[C@H]1O[C@]2(C(=O)N(C)c3ccccc32)[C@@H](C)[C@@H]1[Si](C)(C)F` ?
a: 0.596

q: What would you report for `COCCOC(=O)N1C(=O)[C@@]2(c3ccccc31)[C@H](c1ccccc1OCCO)N1[C@H](c3ccccc3)[C@H](c3ccccc3)OC(=O)[C@H]1[C@@H]2C(=O)N1CCN(c2ncccn2)CC1` ?
a: 1.11

q: Queued: `[N-]=[N+]=Nc1ccccc1[C@H]1OC(c2ccc(OCCCO)cc2)=N[C@@]1(CCS(=O)(=O)c1ccccc1)C(N)=O`
a: 0.868

q: // repeat for `COc1ccc([Si](C)(C)[C@@H]2[C@@H](CC(=O)N3CCC[C@H]3CO)O[C@]3(C(=O)N(c4ccccc4)c4ccccc43)[C@H]2C)cc1` and report
a: 0.894

q: Next: `COc1ccc(CCNC(=O)[C@@]2(Sc3ccc(C)cc3)CC(=O)N(C3Cc4ccccc4C3)[C@@H]2c2ccc(CO)cc2I)cc1`
a: -1.26

q: Another compound: `C=CCNC(=O)[C@@H]1[C@H]2C(=O)O[C@H](c3ccccc3)[C@H](c3ccccc3)N2[C@H](c2ccc(OCCO)cc2)[C@@]12C(=O)Nc1ccc(C#CCC(C(=O)OC)C(=O)OC)cc12`
a: 1.16

q: Entry CC(C)C(O)C1C=CC2C(=O)NC(=O)C2N1Nc1ccc(Cl)cc1Cl (stereo not drawn) please
a: -0.478

q: Another: `CCOC(=O)C[C@H]1[C@H](OC(=O)c2ccc(C(=O)c3ccccc3)cc2)[C@@H](NC(=O)CC(C)C)c2cc(OCCCO)ccc2N1C(=O)c1ccc2ccccc2n1`
a: 1.12

q: Now consider `C=CCNC(=O)[C@@H]1[C@H]2C(=O)O[C@H](c3ccccc3)[C@H](c3ccccc3)N2[C@H](c2ccccc2OCCO)[C@@]12C(=O)N(C(=O)OCCOC)c1ccccc12` and answer again.
a: 1.16

q: How about this compound: O=C(OCc1ccccc1)C1=CCC2c3[nH]c4ccccc4c3C(=O)C1N2S(=O)(=O)c1ccccc1[N+](=O)[O-] (stereo not drawn)
a: 0.996

q: # repeat for `COCCOC(=O)N1C(=O)[C@@]2(c3cc(C#CC4(O)CCCCCC4)ccc31)[C@H](c1ccccc1OCCO)N1[C@H](c3ccccc3)[C@H](c3ccccc3)OC(=O)[C@H]1[C@@H]2C(=O)N1CCN(c2ncccn2)CC1`
a: 1.09

q: Try the compound `CCCC[C@@H]1C[C@H]1[C@@H](NC(=O)c1cccs1)c1ccc(-c2ccccc2)cc1`
a: 0.432

q: `COC(=O)[C@@]1(Cc2ccc(F)cc2)[C@H]2c3cc(C(=O)N4CCCC4)n(Cc4ccc(S(C)(=O)=O)cc4)c3C[C@H]2CN1C(=O)c1ccccc1` ?
a: 1.05

* * *

# protocol: modulators of S6 phosphorylation in cells, primary screen, cell-based, A549, cytoblot, luminescence, serum-stimulated (AID 1158);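 also: serum-stimulated A549 lung adenocarcinoma cells; signal is phosphorylated S6 detected by cytoblot immunostaining with HRP secondary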
# condition_context: A549 phospho-S6 cytoblot, 5 h, higher = more signal
Dear colleague, classification is by z-score, with ranges listed here: interval 1: < -0.3; interval 2: ≥ -0.3 and < 0.4; interval 3: ≥ 0.4

q: Quick check: band for `[N-]=[N+]=Nc1ccccc1[C@@H]1OC(c2ccc(OCCCO)cc2)=N[C@]1(Cc1ccccc1)C(=O)N1CCOCC1`
a: interval 1

q: Now give it for `COc1ccc([Si](C)(C)[C@@H]2[C@@H](CCO)O[C@]3(C(=O)N(Cc4ccc(N(C=O)c5ccccc5)cc4)c4ccccc43)[C@H]2C)cc1` too.
a: interval 2

q: Now this one: `CCOC(=O)[C@H]1C/C=C/C[C@H](C(=O)OCC)C(=O)O[C@H]2[C@@H](OC)O[C@H](CO)[C@@H](OC(=O)c3c(OC)cccc3OC)[C@@H]2OC1=O`
a: interval 2

q: Again, but for O=C1C2C=CC(C(O)Cc3ccccc3)N(n3cnnc3)C2C(=O)N1Cc1ccccc1 (stereo not given)
a: interval 1

q: # iterate: `O=C1N(Cc2ccccc2)c2ccccc2[C@@H]2OC(c3ccc(OCCCO)cc3)=N[C@]12CCS(=O)(=O)c1ccccc1`
a: interval 2

q: Note, next up: `NC(=O)NCC#Cc1ccc2c(c1)[C@]1(C(=O)N2)[C@H](c2ccc(O)cc2)N2[C@H](c3ccccc3)[C@H](c3ccccc3)OC(=O)[C@H]2[C@@H]1C(=O)O`
a: interval 2

q: // same read-out, input: `NCCCCCNC(=O)[C@@H]1C[C@@H]2C(=O)N[C@@H](Cc3ccccc3)C(=O)N2[C@@H]1c1ccc(O)cc1`
a: interval 1

q: Then C=CCC(OC(C)=O)[C@@H]1[C@@H](N(Cc2cc3ccccc3o2)C(=O)c2cccc3ccccc23)c2cc(OCCCO)ccc2N1C(=O)c1ccc(-c2ccccc2)cc1 (stereo not given in full) ?
a: interval 2

q: What about this compound? CCCCCN1CC=CC23O[C@@H]4C=CCCOC(=O)C4[C@H]2C(=O)N(CCCCCO)[C@@H]3C1=O (stereo not given in full)
a: interval 3

q: Request: `O=C1N[C@@H](Cc2ccccc2)C(=O)N2[C@@H]1C[C@@H](C(=O)O)[C@H]2c1cccc(OCCO)c1`
a: interval 3

q: Do the same for `C=C(CCCC)/C(=C/C[C@@H](OC(C)=O)c1ccc(OCCO)cc1)c1cnc2ccccc2c1` please
a: interval 3

q: Same for `CCOC(=O)C1=C[C@@H](C(C)(C)C)N(S(=O)(=O)c2ccc(C)cc2)[C@H]1c1ccc(F)cc1`
a: interval 1

q: Next entry: `CN(C)CCCCCCNC(=O)[C@@H]1C[C@@H]2C(=O)N[C@@H](Cc3ccccc3)C(=O)N2[C@@H]1c1ccc(O)cc1`
a: interval 3

q: And CN1C(=O)C2C=CC(C(O)c3ccc([N+](=O)[O-])cc3)N(N3CCCCC3)C2C1=O (stereo not given) ?
a: interval 1

* * *

# protocol: CREB reporter modulators under forskolin, primary screen, cell-based, PC12, CRE-LacZ reporter, forskolin-stimulated (AID 1146);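 also: PC12 cells with 6xCRE LacZ reporter stimulated by forskolin 10 µM; beta-galactosidase reporter signal reflecting CREB driven transcription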
# condition_context: luminescence, 4.5 h, higher = more signal, called active from +8 up or from −8 down
Would you mind labelling by z-score? At or over -0.5 is T, under is F.

q: API: above_or_equal(metric=z-score, cutoff=-0.5) for item `C=C(COC)/C(=C/C[C@H](OC(C)=O)c1ccc(CO)o1)c1cc(C(=O)OC)ccc1OC`
a: T

q: Lookup `CCOC(=O)C[C@H]1[C@H](OC(=O)c2ccc(-c3ccccc3)cc2)[C@@H](NC(=O)Cc2ccc(OC)cc2)c2cc(OCCCO)ccc2N1C(=O)c1ccccc1`
a: T

q: Cool, now `Cc1nc2cc(Br)ccc2c(=O)o1`
a: F

q: What would you report for `COc1ccc([Si](C)(C)[C@@H]2[C@@H](CC(=O)N3CCC[C@H]3CO)O[C@]3(C(=O)N(c4ccccc4)c4ccccc43)[C@H]2C)cc1` ?
a: T

q: And the next one, `NCCCCCCNC(=O)[C@@H]1C[C@@H]2C(=O)NCC(=O)N2[C@@H]1c1ccc(O)cc1` ?
a: T

q: What do you have for `C=CCOC(=O)[C@H]1[C@@H]2C(=O)O[C@@H](c3ccccc3)[C@@H](c3ccccc3)N2[C@@H](c2ccc(OCCOC(=O)[C@@H]3C[C@@H]4C(=O)N[C@@H](CCCCNC(C)=O)C(=O)N4[C@@H]3c3ccc(O)cc3)cc2)[C@]12C(=O)Nc1ccccc12` ?
a: T

q: // same read-out, input: `[N-]=[N+]=NCc1ccccc1C[C@]1(C(N)=O)COC(c2ccc(OCCCO)cc2)=N1`
a: F

* * *

# protocol: basal MM1S mitochondrial membrane potential changes, profiling panel, cell-based, JC-1 fluorescence, 24 h, 100 nL compound (AID 1170); also: test concentration not given here
# condition_context: higher = more signal
measure: z-score
Give the figure only, with no unit attached.

q: Value lookup for z-score; key = O=C1OCCC/C=C\[C@H]2OC34C=CCN(Cc5ccccc5)C(=O)[C@H]3N(CCCO)C(=O)[C@@H]4C12 (stereo not given in full)
a: 1.44

q: Please do the same for `C=CC[C@]1(C(=O)NCCCOC)N=C(c2ccc(OCCCO)cc2)O[C@H]1c1ccccc1CN=[N+]=[N-]` as well.
a: -0.142

q: Can you handle `COC(=O)[C@@]1(Cc2ccc(OC)cc2)[C@H]2c3cc(C(=O)N(C)C)n(CCc4ccccn4)c3C[C@H]2CN1C(=O)c1ccccc1` next?
a: -1.35

q: Record: C=CCC(OC(C)=O)[C@@H]1[C@@H](N(Cc2ccc(-c3ccccc3)cc2)C(=O)Cc2ccc(OC)cc2)c2cc(OCCCO)ccc2N1C(=O)Cc1ccc2ccccc2c1 (stereo not given in full)
a: 0.338

q: Continue with `O=C1O[C@H](c2ccccc2)[C@H](c2ccccc2)N2[C@H]1[C@@H](C(=O)N1CCCCCCC1)[C@]1(C(=O)Nc3ccc(C#CCCO)cc31)[C@H]2c1ccccc1OCCO`
a: -1.11

q: Another molecule: `O=C(CS)NCCCCCCNC(=O)[C@@H]1C[C@@H]2C(=O)NCC(=O)N2[C@@H]1c1cccc(OCCO)c1`
a: -0.502

q: And what about the molecule COc1cc(NN2C(C(O)c3ccco3)C=CC3C(=O)N(c4ccccc4)C(=O)C32)cc(OC)c1OC (stereo not given) ?
a: -1.31

q: And the next one, `CC(C)=CCN[C@H](CO)c1ccccc1` ?
a: 0.559

q: Please give the result for `C=C(/C(=C/C[C@H](OC(C)=O)c1ccc(CO)o1)c1cc(C(=O)OC)ccc1OC)C(C)C` too.
a: -0.227

q: Proceed to `COC(=O)[C@@]1(Cc2ccc(OC)cc2)[C@H]2c3cc(C(=O)N4CCCC4)n(Cc4ccc(O)c(OC)c4)c3C[C@H]2CN1C(=O)c1ccccc1`
a: -0.933

q: Cool, now `CN(C)C(=O)[C@@]1(CCS(=O)(=O)c2ccccc2)COC(c2ccc(OCCCO)cc2)=N1`
a: -1.49

q: Next: CC1CC/C=C\[C@H]2OC34C=CCN(C(C)(C)C)C(=O)[C@H]3N(CCO)C(=O)[C@@H]4C2C(=O)O1 (stereo not given in full)
a: 0.927

q: Note, next up: `COCC(=C=CC[C@@H](O)c1cccc(OCCO)c1)C[C@@H](O)c1ccccn1`
a: -0.0149

q: Field entry: C=C(C)[C@@H]1CC=C(C(O)C2C=CC3C(=O)N(c4ccccc4)C(=O)C3N2Nc2ccccc2)CC1 (stereo not given in full)
a: -0.31

q: One more molecule: `C=CCNC(=O)[C@@H]1[C@H]2C(=O)O[C@H](c3ccccc3)[C@H](c3ccccc3)N2[C@H](c2ccc(OCCO)cc2)[C@@]12C(=O)Nc1ccc(C#CCC(C(=O)OC)C(=O)OC)cc12`
a: -1.63
